Test system: PDC KRAS tumor spheroids with HUVEC/MSC, viability;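 note: spheroids exposed to compounds for seven days before readout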
assay: Anticancer human tumor 349418-098-R-PDC patient-derived lung adenocarcinoma cell line growth inhibition [KRAS2]
run.conditions: second compound 10 µM; first compound 1 µM; stronger effect = lower value
Simple rule here: viability, T/C less than 10% is TRUE, otherwise FALSE.

>>> qualitative_label("CC(C)NCC(C(=O)N1CCN(c2ncnc3c2C(C)CC3O)CC1)c1ccc(Cl)cc1 (stereo not given) + CNCc1ccccc1-c1csc(C(C)Nc2nc(C)nc3cc(OC)c(OC)cc23)c1")
"TRUE"
>>> qualitative_label("CC1OCC2(CCN(c3cnc(Sc4ccnc(N)c4Cl)c(N)n3)CC2)C1N (stereo not given) + CNCc1ccccc1-c1csc(C(C)Nc2nc(C)nc3cc(OC)c(OC)cc23)c1")
"TRUE"
>>> qualitative_label("COC(=O)c1ccc2c(C(=Nc3ccc(N(C)C(=O)CN4CCN(C)CC4)cc3)c3ccccc3)c(O)[nH]c2c1 + C=CC(=O)N1CCN(c2nc(=O)n(-c3c(C)ccnc3C(C)C)c3nc(-c4c(O)cccc4F)c(F)cc23)C(C)C1")
"FALSE"
>>> qualitative_label("Cn1nccc1Nc1nccc(-c2cc3c(s2)C(C)(C)N(CCN2CCOCC2)C3=O)n1 + C=CC(=O)N1CCN(c2nc(=O)n(-c3c(C)ccnc3C(C)C)c3nc(-c4c(O)cccc4F)c(F)cc23)C(C)C1")
"FALSE"
>>> qualitative_label("Cn1nccc1Nc1nccc(-c2cc3c(s2)C(C)(C)N(CCN2CCOCC2)C3=O)n1 + CNCc1ccccc1-c1csc(C(C)Nc2nc(C)nc3cc(OC)c(OC)cc23)c1")
"TRUE"
